Target: huPD-L1 (Homo sapiens, UniProt Q9NZQ7)
Sequence (Q9NZQ7 19-290): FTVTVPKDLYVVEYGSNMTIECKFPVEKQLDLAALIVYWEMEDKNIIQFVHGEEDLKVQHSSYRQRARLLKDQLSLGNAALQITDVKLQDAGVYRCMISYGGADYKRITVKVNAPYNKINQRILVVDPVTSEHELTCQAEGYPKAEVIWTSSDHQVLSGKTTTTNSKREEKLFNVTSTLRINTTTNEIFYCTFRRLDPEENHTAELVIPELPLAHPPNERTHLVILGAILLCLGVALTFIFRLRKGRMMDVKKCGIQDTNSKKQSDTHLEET
Assay: Flow binding to CHO cells stably expressing PD-L1
Parameters: huCTLA4 and huPD-L1, full-length mammalian surface expression constructs were generated; expressed in transfected cells; host or cells: CHO cells, lentiviral transduction, sorted to >98% purity
Details: Table E19; ratio of MFI at 33.3 nM
metricName: Ratio of PDL1:CD28
Reply: number alone, nothing else.

Known results for molecules:
molecule	metricName	val
M47L (protein) VIHVTKEVKEVATLSCGHNVSVEELAQTRIYWQKEKKMVLTMMSGDLNIWPEYKNRTIFDITNNLSIVILALRPSDEGTYECVVLKYEKDAFKREHLAEVTLSVKAD	Ratio of PDL1:CD28	6.1
M47V/N48K/V68M (protein) VIHVTKEVKEVATLSCGHNVSVEELAQTRIYWQKEKKMVLTMMSGDVKIWPEYKNRTIFDITNNLSIMILALRPSDEGTYECVVLKYEKDAFKREHLAEVTLSVKAD	Ratio of PDL1:CD28	22.6
E35D/V68M/L85Q (protein) VIHVTKEVKEVATLSCGHNVSVEELAQTRIYWQKDKKMVLTMMSGDMNIWPEYKNRTIFDITNNLSIMILALRPSDEGTYECVVQKYEKDAFKREHLAEVTLSVKAD	Ratio of PDL1:CD28	78.4

Lab note: next molecule to report on.
(Q) Query: Ratio of PDL1:CD28; subject: E35D/N48K/K89N (protein) VIHVTKEVKEVATLSCGHNVSVEELAQTRIYWQKDKKMVLTMMSGDMKIWPEYKNRTIFDITNNLSIVILALRPSDEGTYECVVLKYENDAFKREHLAEVTLSVKAD
(A) 14.0
